System: Escherichia coli TOP10
Test: shrunken log2 fold change of peptide-encoding DNA abundance (4.5 h post-induction vs induction); higher = less antimicrobial activity (less host growth inhibition)
Details: time post-induction: 4.5 h; library: site-saturation at positions 5, 18, 19, 20
measured_parameter: shrunken log2 fold change
A bare number is all that is needed in reply.

GET /values?readout=shrunken log2 fold change&system=Escherichia coli TOP10&item= `RRIRYRPPRLPRPRPRPFSCPRP`
-0.0516

Param readout = shrunken log2 fold change; param system = Escherichia coli TOP10; param query = `RRIRWRPPRLPRPRPRPPVNPRP` ; response: value;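 further: peptides expressed intracellularly from a pBAD plasmid library in pooled LB shake-flask culture, induced with 0.3% L-arabinose, DNA abundance read by NGS, three biological replicates, DESeq2 with apeglm shrinkage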
0.13

What reported shrunken log2 fold change corresponds to `RRIRPRPPRLPRPRPRPREMPRP` on Escherichia coli TOP10?
0.319
